Hello, the source for this data is patent US20100168136A1, in case you need it.

Test system: production of β-amyloid protein (Aβ) by E35 cells (human glioma H4 cells transfected with APP751 gene)
Assay: Screening system using cells: inhibition of production/secretion of β-amyloid protein (Aβ sandwich ELISA of culture supernatant)
Type: cell-based
Settings: 24 hours with compound, Aβ in supernatant by ELISA, read-out: Activity (EC50, concentration at which production of Aβ is inhibited by 50%)
pEC50: −log10 of the molar value.
// reported pEC50 for each item listed
RESULT_TYPE: pEC50

> print(dat)
                                    compound  result.type  measured.value
 1  Cc1cc(C(N)=O)ncc1C(c1c(F)ccc(F)c1F)S(=O)(=O)CCC(F)(F)C(F)(F)F (stereo not drawn)        pEC50    7.30 to 8.30
 2  Cc1cc(C(N)=O)ncc1C(c1c(F)ccc(F)c1F)S(=O)(=O)CCC(F)(F)Cl (stereo not drawn)        pEC50    7.30 to 8.30
 3  Cc1cc(C(N)=O)ncc1C(c1c(F)ccc(F)c1F)S(=O)(=O)CCCCl (stereo not drawn)        pEC50    6.30 to 7.30
 4  Cc1cc(C(=O)NCO)ncc1C(c1c(F)ccc(F)c1F)S(=O)(=O)CCC(F)(F)Cl (stereo not drawn)        pEC50    7.30 to 8.30
 5  Cc1cc(C(N)=O)ncc1C(c1c(F)ccc(F)c1F)S(=O)(=O)CC=C(F)F (stereo not drawn)        pEC50    6.30 to 7.30
 6  Nc1cc(C(c2c(F)ccc(F)c2F)S(=O)(=O)CCC(F)(F)F)c(Cl)cn1 (stereo not drawn)        pEC50    7.30 to 8.30
 7  Cc1cc(C(N)=O)ncc1C(c1c(F)ccc(F)c1F)S(=O)(=O)CCC(Cl)(Cl)Cl (stereo not drawn)        pEC50    6.30 to 7.30
 8  Cc1cc(C(N)=O)ncc1C(c1c(F)ccc(F)c1F)S(=O)(=O)CCC(F)(F)F (stereo not drawn)        pEC50    6.30 to 7.30
 9  O=c1[nH]nc2cc(C(c3c(F)ccc(F)c3F)S(=O)(=O)CCC(F)(F)F)c(Cl)cn12 (stereo not drawn)        pEC50    7.30 to 8.30
10  Nc1cc(=O)n2cc(Cl)c(C(c3c(F)ccc(F)c3F)S(=O)(=O)CCC(F)(F)F)cc2n1 (stereo not drawn)        pEC50          ≥ 8.30
11  Cc1cc(C(=O)NCO)ncc1C(c1c(F)ccc(F)c1F)S(=O)(=O)CCC(F)(F)F (stereo not drawn)        pEC50    7.30 to 8.30
12  CCCCS(=O)(=O)C(c1cnc(C(N)=O)cc1C)c1c(F)ccc(F)c1F (stereo not drawn)        pEC50    6.30 to 7.30
13  Cc1cc(C(N)=O)ncc1C(c1c(F)ccc(F)c1F)S(=O)(=O)CCC(C)(F)F (stereo not drawn)        pEC50    6.30 to 7.30
14  O=c1cc(O)nc2cc(C(c3c(F)ccc(F)c3F)S(=O)(=O)CCC(F)(F)F)c(Cl)cn12 (stereo not drawn)        pEC50    7.30 to 8.30
15  NC(=O)c1cc(C(c2c(F)ccc(F)c2F)S(=O)(=O)CCC(F)(F)F)c(Cl)cn1 (stereo not drawn)        pEC50    6.30 to 7.30

* * *

Quick list: melting point per entry.
RESULT_TYPE: melting point

> print(dat)
                                    molecule   measured.value
 1  Cc1cc(C(N)=O)ncc1C(c1c(F)ccc(F)c1F)S(=O)(=O)CCC(F)(F)Cl (stereo not drawn)    181 to 183 °C
 2  Cc1cc(C(N)=O)ncc1C(c1c(F)ccc(F)c1F)S(=O)(=O)CC=C(F)F (stereo not drawn)    171 to 172 °C
 3  Cc1cc(C(N)=O)ncc1C(c1c(F)ccc(F)c1F)S(=O)(=O)CC(F)(F)C(F)F (stereo not drawn)    160 to 161 °C
 4  Cc1cc(C(=O)NCCO)ncc1C(c1c(F)ccc(F)c1F)S(=O)(=O)CCC(F)(F)F (stereo not drawn)    146 to 147 °C
 5  Cc1cc(C(N)=O)ncc1C(c1c(F)ccc(F)c1F)S(=O)(=O)CC(C(F)(F)F)C(F)(F)F (stereo not drawn)    194 to 196 °C
 6  Cc1cc(C(=O)O)ncc1C(c1c(F)ccc(F)c1F)S(=O)(=O)CCC(F)(F)F (stereo not drawn)      85 to 87 °C
 7  Cc1cc(C(N)=O)ncc1C(c1c(F)ccc(F)c1F)S(=O)(=O)CCC(F)(F)F (stereo not drawn)    190 to 191 °C
 8  CCCCS(=O)(=O)C(c1cnc(C(N)=O)cc1C)c1c(F)ccc(F)c1F (stereo not drawn)    203 to 204 °C
 9  Nc1cc(C(c2c(F)ccc(F)c2F)S(=O)(=O)CCC(F)(F)F)c(Cl)cn1 (stereo not drawn)    155 to 159 °C
10  Cc1cc(C(=O)NCO)ncc1C(c1c(F)ccc(F)c1F)S(=O)(=O)CCC(F)(F)C(F)(F)F (stereo not drawn)    126 to 128 °C
11  Cc1cc(C(N)=O)ncc1C(c1c(F)ccc(F)c1F)S(=O)(=O)CC1CC1 (stereo not drawn)    222 to 223 °C
12  Cc1cc(C(N)=O)ncc1C(c1c(F)ccc(F)c1F)S(=O)(=O)CCC(F)F (stereo not drawn)  191.5 to 192 °C
13  Cc1cc(C(N)=O)ncc1C(c1c(F)ccc(F)c1F)S(=O)(=O)CC(C)C (stereo not drawn)    240 to 241 °C
14  Cc1cc(C(N)=O)ncc1C(c1c(F)ccc(F)c1F)S(=O)(=O)CCC(C)(C)C (stereo not drawn)    143 to 144 °C
15  Cc1cc(C(N)=O)ncc1C(c1c(F)ccc(F)c1F)S(=O)(=O)CC1CCC1 (stereo not drawn)    214 to 215 °C
16  Cc1cc(C(=O)NCO)ncc1C(c1c(F)ccc(F)c1F)S(=O)(=O)CCC(C)(F)F (stereo not drawn)  161 to 161.5 °C
17  Cc1cc(C(N)=O)ncc1C(c1c(F)ccc(F)c1F)S(=O)(=O)CCCF (stereo not drawn)    194 to 196 °C
18  Cc1cc(C(N)=O)ncc1C(c1c(F)ccc(F)c1F)S(=O)(=O)CCC(C)(F)F (stereo not drawn)    165 to 166 °C
19  O=c1cc(O)nc2cc(C(c3c(F)ccc(F)c3F)S(=O)(=O)CCC(F)(F)F)c(Cl)cn12 (stereo not drawn)    264 °C (dec.)
20  Cc1cc(C(N)=O)ncc1C(c1c(F)ccc(F)c1F)S(=O)(=O)CCCCl (stereo not drawn)    197 to 199 °C
21  Nc1cc(=O)n2cc(Cl)c(C(c3c(F)ccc(F)c3F)S(=O)(=O)CCC(F)(F)F)cc2n1 (stereo not drawn)    247 °C (dec.)
22  O=c1[nH]nc2cc(C(c3c(F)ccc(F)c3F)S(=O)(=O)CCC(F)(F)F)c(Cl)cn12 (stereo not drawn)    209 to 211 °C
23  CCCS(=O)(=O)C(c1cnc(C(N)=O)cc1C)c1c(F)ccc(F)c1F (stereo not drawn)    202 to 204 °C
24  Cc1cc(C(N)=O)ncc1C(c1c(F)ccc(F)c1F)S(=O)(=O)CC1CC(F)(F)C1 (stereo not drawn)    205 to 207 °C
25  Cc1cc(C(N)=O)ncc1C(SCCC=C(F)F)c1c(F)ccc(F)c1F (stereo not drawn)      97 to 98 °C
26  Cc1cc(C(N)=O)ncc1C(c1c(F)ccc(F)c1F)S(=O)(=O)CCC(Cl)(Cl)Cl (stereo not drawn)    173 to 175 °C
27  Cc1cc(C(N)=O)ncc1C(c1c(F)ccc(F)c1F)S(=O)(=O)CCCC(F)(F)F (stereo not drawn)    201 to 203 °C
28  Cc1cc(C(=O)NCO)ncc1C(c1c(F)ccc(F)c1F)S(=O)(=O)CCC(F)(F)F (stereo not drawn)    146 to 148 °C
29  Cc1cc(C(=O)NCO)ncc1C(c1c(F)ccc(F)c1F)S(=O)(=O)CCC(F)(F)Cl (stereo not drawn)    150 to 152 °C
30  Cc1cc(C(N)=O)ncc1C(c1c(F)ccc(F)c1F)S(=O)(=O)CCC(F)(F)C(F)(F)F (stereo not drawn)    155 to 156 °C
31  Cc1cc(C(=O)N(C)C)ncc1C(c1c(F)ccc(F)c1F)S(=O)(=O)CCC(F)(F)F (stereo not drawn)    203 to 204 °C
32  Cc1cc(C(N)=O)ncc1C(c1c(F)ccc(F)c1F)S(=O)(=O)CCC(F)=C(F)F (stereo not drawn)    170 to 172 °C
33  NC(=O)c1cc(C(c2c(F)ccc(F)c2F)S(=O)(=O)CCC(F)(F)F)c(Cl)cn1 (stereo not drawn)    237 to 239 °C
